target: EGFR del746-750 T790M (Homo sapiens, UniProt P00533, DEL746-750/T790M); construct: purchased Carna Biosciences 08-528; experiment: EGFR del746-750 T790M biochemical assay (Caliper mobility shift); details: 5 μM ATP; apparent Ki (Morrison fit) converted by Cheng-Prusoff, Km of ATP 2.1 μM; read-out: EGFR(T790M/d746-750) Ki
Sequence (P00533 with tags, fused parts or gaps DEL746-750/T790M limits assumed): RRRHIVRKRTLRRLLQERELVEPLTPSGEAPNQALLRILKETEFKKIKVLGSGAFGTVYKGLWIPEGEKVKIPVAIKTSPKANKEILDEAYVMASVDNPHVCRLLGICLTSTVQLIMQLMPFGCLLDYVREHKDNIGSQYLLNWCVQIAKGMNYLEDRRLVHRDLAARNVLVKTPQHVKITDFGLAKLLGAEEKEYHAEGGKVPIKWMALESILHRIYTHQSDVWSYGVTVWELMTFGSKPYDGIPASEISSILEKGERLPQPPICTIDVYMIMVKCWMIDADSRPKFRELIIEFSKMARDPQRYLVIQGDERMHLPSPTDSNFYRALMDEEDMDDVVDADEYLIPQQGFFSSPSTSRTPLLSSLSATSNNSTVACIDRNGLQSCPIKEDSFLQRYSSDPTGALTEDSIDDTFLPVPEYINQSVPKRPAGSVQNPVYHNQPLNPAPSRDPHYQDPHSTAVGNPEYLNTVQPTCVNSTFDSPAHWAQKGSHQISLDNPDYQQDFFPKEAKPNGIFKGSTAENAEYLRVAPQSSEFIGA
pKi: −log10 of the molar value.
ASSAY_METRIC: pKi

1: CCC(C)n1nc(N2C[C@@H](CO)NC2=O)c2cnc(Nc3ccnc(N4CCC(C)(O)CC4)n3)cc21 (mixture of isomers)
2: CCC(C)n1nc(N2CC[C@@H](O)C2)c2cnc(Nc3ccnc(N4CCC(CC#N)(OC)CC4)n3)cc21 (mixture of isomers)
3: CC(C)n1nc(NCCS(C)(=N)=O)c2cnc(Nc3ccnc(-c4cnn(S(=O)(=O)C5CC5)c4)n3)cc21 (stereo not drawn)
### Prompt Could you please order the items by pKi, going from the lowest number to the highest? To answer, arrange all of the labels according to the requested order.
### Response 1, 2, 3

From: patent US9951064B2
